Hey, just so you know, these numbers are from PubChem BioAssay.

Quick list: composite z-score per entry.
- Method: small-molecule microarray binders of probe aDKK1, primary screen, biochemical, biotinylated probe, 635/667 nm fluorescence (AID 1099);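 note: score merges 667nm spot fluorescence with signal to noise across triplicate slides; reference of the scale not given here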
- Condition Summary: higher = more signal
Measurement Type: composite z-score

INSERT INTO results (compound, measurement_type, obs_value) VALUES
  ('COc1cccc([C@H]2Oc3ccc(OC)cc3C(=NOC[C@@H](O)COCc3ccco3)[C@@H]2O)c1', 'composite z-score', -0.644),
  ('CCN1C(=O)[C@H]2[C@H]3[C@H](O)[C@H](O)CC(=O)[C@@H]3CC[C@H]2C1=O', 'composite z-score', -0.22),
  ('COC(=O)[C@H]1O[C@@H](c2c(OC)c(OC)c(C)c(OC)c2OC)[C@H](C)[C@@H](O)[C@H]1C', 'composite z-score', 0.138),
  ('CC(C)[C@@H](OCc1ccccc1)[C@H](C)C=NOC[C@@H](O)COCc1ccco1', 'composite z-score', -0.869),
  ('CCOC(=O)[C@H](CC(C)C)NC(=O)CCC1CC(OC(=O)NCc2cccc3ccccc23)CC2(CCCC(COC(=O)NCC3CCCCC3)O2)O1 (stereo not given in full)', 'composite z-score', -0.11),
  ('COc1ccc(O[C@@H]2[C@H](O)CO[C@@H]2C=Cc2ccccc2)cc1', 'composite z-score', -0.228),
  ('C[C@H]1Cc2c(COc3ccccc3)nc3c(c2CO1)CN(CCOc1ccccc1)CC3', 'composite z-score', -0.133),
  ('C=Cc1ccc([C@H]2N[C@H](C(=O)O)CC[C@@H]2C)cc1', 'composite z-score', 0.178),
  ('Cc1cc2c(nc1C)CCCCN2CC(C)ON=C1[C@H]2CCn3c(=O)n(-c4ccccc4)c(=O)n3[C@H]2[C@H](O)[C@@H]2O[C@H]12 (stereo not given in full)', 'composite z-score', 0.213),
  ('CO[C@@H]1COC(=O)CC=C[C@@H](C)[C@H](OC)COC(=O)[C@@H](C)COC(=O)CC=C[C@H]1C', 'composite z-score', -0.803),
  ('COC(=O)[C@H]1[C@@H](O)[C@@]2(O)c3ccccc3O[C@@]2(c2ccccc2)[C@@H]1c1ccccc1', 'composite z-score', -0.12),
  ('CC(C)CON=C1C[C@@H](O)[C@@H](O)[C@@H]2[C@@H]3C(=O)N(c4ccc(F)cc4F)C(=O)[C@@H]3CC[C@H]12', 'composite z-score', -0.212),
  ('COC(=O)CC=C[C@@H](C)[C@@H](C=NOC[C@H]1O[C@H](c2ccccc2)C=C[C@@H]1Oc1ccc(OC)cc1)NS(=O)(=O)c1ccc(C)cc1', 'composite z-score', 0.0033),
  ('CON=Cc1ccc(C(=O)N2[C@H](c3ccc(C)cc3)[C@@H](C)CC[C@H]2C(=O)OC)cc1', 'composite z-score', -0.254),
  ('CC(C)CCN1CCc2nc(COc3ccccc3)c3c(c2C1)CO[C@@H](C)C3', 'composite z-score', 0.179),
  ('O=C1[C@H]2[C@H]3[C@H](O)[C@H](O)CC(=NOC[C@@H](O)COCc4ccco4)[C@@H]3CC[C@H]2C(=O)N1C[C@@H]1CCCO1', 'composite z-score', -0.549),
  ('CCOC(=O)[C@H](CC(C)C)NC(=O)CCC1CC(OC(=O)NCc2cccc3ccccc23)CC2(CCCC(COC(=O)NCCOC)O2)O1 (stereo not given in full)', 'composite z-score', -0.164),
  ('COC(=O)[C@H](C)NC(=O)CCC1CC(OC(=O)NCc2ccc3c(c2)OCO3)CC2(CCCC(COC(=O)NCC(c3ccccc3)c3ccccc3)O2)O1 (stereo not given in full)', 'composite z-score', -0.33),
  ('COc1ccc(O[C@H]2C=C[C@@H](c3ccccc3)O[C@@H]2CON=C(C)CCN2CCc3nc(-c4ccccc4)c(-c4ccccc4)cc3C2)cc1', 'composite z-score', -0.259),
  ('CCOC(=O)[C@H](CC(C)C)NC(=O)CCC1CC(OC(=O)NCCc2ccc(F)cc2)CC2(CCCC(COC(=O)NCCOc3ccccc3)O2)O1 (stereo not given in full)', 'composite z-score', -0.0843),
  ('CO[C@H]1COC(=O)[C@H](C)NC(=O)CC=C[C@@H](C)[C@H](OC)COC(=O)[C@@H](OCc2ccccc2)C=C[C@@H]1C', 'composite z-score', -0.747),
  ('CCCNC(=O)OC[C@H]1O[C@H](CCON=C(C)CCN2CCCc3nc(C)c(C)cc32)C=C[C@@H]1Oc1ccc(OC)cc1', 'composite z-score', 0.595),
  ('O=c1n(Cc2cc3c(cc2Cl)OCO3)c(=O)n2n1CC[C@@H]1C(=NOC[C@@H](O)COCc3ccco3)[C@H]3O[C@H]3[C@@H](O)[C@@H]12', 'composite z-score', -0.0876),
  ('CCOC(=O)[C@H](Cc1ccccc1)NC(=O)CCC1CC(OC(=O)NCCc2ccc(F)cc2)CC2(CCCC(COC(=O)NCCOC)O2)O1 (stereo not given in full)', 'composite z-score', 0.765),
  ('COC(=O)CC=C[C@@H](C)[C@@H](C=NOC(C)CN1CCCc2nc(C)c(C)cc21)OC (stereo not given in full)', 'composite z-score', -0.0071),
  ('CC(=O)OC[C@H]1O[C@H](CCON=C2[C@H]3CCn4c(=O)n(-c5ccccc5)c(=O)n4[C@H]3[C@H](O)[C@@H]3O[C@H]23)C=C[C@@H]1OC(C)=O', 'composite z-score', -0.149),
  ('COC(=O)CC=C[C@@H](C)[C@@H]1C=C[C@H](O)[C@@H](CO)O1', 'composite z-score', -0.0367),
  ('O=C1CCCC=C1C(CCc1ccccc1)OC(=O)c1ccc(Br)cc1 (stereo not given)', 'composite z-score', -0.0892),
  ('O=c1n(Cc2cc3c(cc2Cl)OCO3)c(=O)n2n1CC[C@@H]1C(=NOCc3ccccc3)[C@H]3O[C@H]3[C@@H](O)[C@@H]12', 'composite z-score', 0.87),
  ('CCOC(=O)[C@H](Cc1ccccc1)NC(=O)CCC1CC(OC(=O)NCCc2ccc(F)cc2)CC2(CCCC(COC(=O)NCCCN3CCCC3=O)O2)O1 (stereo not given in full)', 'composite z-score', -0.257);

---

- Test system: XIP peptide (Xip251-270)
- Method: small-molecule binders of XIP peptide, primary screen, biochemical, small-molecule microarray, fluorescence 635/667 nm, 0.5 µg/mL protein (AID 1183)
- Condition Summary: small-molecule microarray binding, fluorescence 635 nm; higher = more signal
Record 1 whenever composite z-score is at 0.4 or higher; record 0 when lower.

INSERT INTO results (compound, target_desc, group_label) VALUES
  ('CON=C[C@@H](NS(=O)(=O)c1ccc(C)cc1)[C@H](C)C=CCC(=O)OC', 'XIP peptide (Xip251-270)', 0),
  ('COC(=O)CC=C[C@@H](C)[C@@H](C=NOCC[C@@H]1C=C[C@H](OC(C)=O)[C@@H](COC(C)=O)O1)NS(=O)(=O)c1ccc(C)cc1', 'XIP peptide (Xip251-270)', 0),
  ('COc1cccc([C@H]2Oc3ccc(OC)cc3C(=NOC[C@@H](O)COCc3ccco3)[C@@H]2O)c1', 'XIP peptide (Xip251-270)', 0),
  ('COC(=O)CC=C[C@@H](C)[C@@H](C=NOC[C@H]1O[C@H](c2ccccc2)C=C[C@@H]1Oc1ccc(OC)cc1)NS(=O)(=O)c1ccc(C)cc1', 'XIP peptide (Xip251-270)', 0),
  ('CCOC(=O)[C@H](Cc1ccccc1)NC(=O)OC1CC(CCC2CC(CC)=NO2)OC2(CCCC(COC(=O)NCCC(C)C)O2)C1 (some centres undefined)', 'XIP peptide (Xip251-270)', 1),
  ('O=C1C[C@@H](O)[C@@H](O)[C@@H]2[C@@H]3C(=O)N(c4cccc(Oc5ccccc5)c4)C(=O)[C@@H]3CC[C@H]12', 'XIP peptide (Xip251-270)', 0),
  ('CCc1cc2c(nc1CC)CCN(CCC(C)=NOC[C@H]1O[C@H](c3ccccc3)C=C[C@@H]1Oc1ccc(OC)cc1)C2', 'XIP peptide (Xip251-270)', 1),
  ('COc1cccc([C@H]2Oc3ccc(OC)cc3C(=NO[C@@H](C)c3cn([C@H](CO)Cc4ccccc4)nn3)[C@@H]2O)c1', 'XIP peptide (Xip251-270)', 1),
  ('Cn1c(=O)n2n(c1=O)[C@H]1[C@H](O)[C@@H]3O[C@@H]3C(=O)[C@H]1CC2', 'XIP peptide (Xip251-270)', 0),
  ('COc1ccc(O[C@H]2C=C[C@@H](c3ccccc3)O[C@@H]2CON=C(C)C)cc1', 'XIP peptide (Xip251-270)', 0),
  ('CC(C)=CCCC(C)=CCON=C1C[C@@H](O)[C@@H](O)[C@@H]2[C@@H]3C(=O)N(c4ccc(F)cc4F)C(=O)[C@@H]3CC[C@@H]12', 'XIP peptide (Xip251-270)', 1),
  ('CC(CCC(=O)OC[C@H]1O[C@H](C#Cc2ccccc2)C=C[C@@H]1Oc1ccc(C)cc1)=NO[C@H](C)c1cn([C@H](CO)Cc2ccccc2)nn1', 'XIP peptide (Xip251-270)', 1),
  ('CO[C@@H]1C=CCC(=O)N[C@@H](C)C(=O)OC[C@@H](OC)[C@H](C)CCCC(=O)OC[C@H]1C', 'XIP peptide (Xip251-270)', 0),
  ('CC[C@@H](c1ccccc1)n1c(=O)n2n(c1=O)[C@H]1[C@H](O)[C@@H]3O[C@@H]3C(=NOC[C@@H](O)COCc3ccco3)[C@H]1CC2', 'XIP peptide (Xip251-270)', 0),
  ('Cc1ccc(S(=O)(=O)OC[C@H]2CN3[C@H](c4ccc(Br)cc4)[C@@H](C)CC[C@H]3C(=O)O2)cc1', 'XIP peptide (Xip251-270)', 1),
  ('CC(CCN1CCc2nc(-c3ccccc3)c(-c3ccccc3)cc2C1)=NOC[C@@H](O)[C@H]1O[C@@H]2OC(C)(C)O[C@@H]2[C@H]1O', 'XIP peptide (Xip251-270)', 1),
  ('COc1ccc(O[C@H]2C=C[C@@H](c3ccccc3)O[C@@H]2COC(=O)CCC(C)=NO[C@@H]2O[C@H](COC(C)=O)[C@@H](OC(C)=O)[C@H](OC(C)=O)[C@H]2OC(C)=O)cc1', 'XIP peptide (Xip251-270)', 1),
  ('CO[C@H]1COC(=O)[C@@H](Cc2ccccc2)NC(=O)[C@@H](C)COC(=O)CCC[C@@H]1C', 'XIP peptide (Xip251-270)', 0),
  ('CC(=O)O[C@H]1C2=CO[C@H](C)[C@H]3[C@H]4C5=C([C@H](O)[C@H]6O[C@H]6C5=O)[C@H](OC4C)[C@@]23C(=O)[C@@H]2O[C@@H]21 (some centres undefined)', 'XIP peptide (Xip251-270)', 0),
  ('CON=CC[C@@H]1C=C[C@H](OC(C)=O)[C@@H](COC(C)=O)O1', 'XIP peptide (Xip251-270)', 1),
  ('C#CCCCON=C1[C@H]2CCn3c(=O)n(-c4ccccc4)c(=O)n3[C@H]2[C@H](O)[C@@H]2O[C@H]12', 'XIP peptide (Xip251-270)', 0),
  ('COC(=O)[C@@H]1CC[C@@H](C)[C@H](c2ccc(Br)cc2)N1', 'XIP peptide (Xip251-270)', 0),
  ('COc1ccc(COC(=O)NN=C2C[C@@H](O)[C@@H](O)[C@@H]3[C@@H]4C(=O)N(C5CCCCC5)C(=O)[C@@H]4CC[C@H]23)cc1', 'XIP peptide (Xip251-270)', 0),
  ('O=C(NN=C1C[C@@H](O)[C@@H](O)[C@@H]2[C@@H]3C(=O)N(C4CCCCC4)C(=O)[C@@H]3CC[C@@H]12)OCc1ccccc1', 'XIP peptide (Xip251-270)', 0),
  ('CC(C)CON=C1C[C@@H](O)[C@@H](O)[C@@H]2[C@@H]3C(=O)N(Cc4ccc5c(c4)OCO5)C(=O)[C@@H]3CC[C@H]12', 'XIP peptide (Xip251-270)', 0),
  ('CCOC(=O)[C@H](CC(C)C)NC(=O)CCC1CC(OC(=O)NCc2ccc3c(c2)OCO3)CC2(CCCC(COC(=O)NCC(c3ccccc3)c3ccccc3)O2)O1 (some centres undefined)', 'XIP peptide (Xip251-270)', 0),
  ('CCOC(=O)C1=NO[C@@]2(C=C(Br)C3(OCCCO3)[C@H]3O[C@H]32)C1', 'XIP peptide (Xip251-270)', 1),
  ('C#CCCCON=C1C[C@@H](O)[C@@H](O)[C@@H]2[C@@H]3C(=O)N(Cc4ccccc4)C(=O)[C@@H]3CC[C@@H]12', 'XIP peptide (Xip251-270)', 0),
  ('CC(=O)OC[C@H]1O[C@H](CC=NO[C@H](C)c2cn([C@H](CO)Cc3ccccc3)nn2)C=C[C@@H]1OC(C)=O', 'XIP peptide (Xip251-270)', 0);
